- test-conditions: [M+H]+; instrument: TW; calibrated with polyalanine and drug standards
recorded-metric: collision cross section (N2) (Å²)

{"molecule": "COc1cc(OC)c2c(=O)cc(-c3ccccc3)oc2c1", "units-of-measure": "Å²", "collision cross section (N2)": 160.5}
{"molecule": "Cn1c([N+](=O)[O-])cnc1COC(N)=O", "units-of-measure": "Å²", "collision cross section (N2)": 136.9}
{"molecule": "CCc1oc2ccccc2c1C(=O)c1cc(Br)c(O)c(Br)c1", "units-of-measure": "Å²", "collision cross section (N2)": 176}
{"molecule": "C[C@]12C=CC(=O)C=C1CC[C@H]1[C@@H]3C[C@@H](O)[C@](O)(C(=O)CO)[C@@]3(C)C[C@H](O)[C@@]12F", "units-of-measure": "Å²", "collision cross section (N2)": 186.8}
{"molecule": "Nc1ccc(S(=O)(=O)Nc2ncccn2)cc1", "units-of-measure": "Å²", "collision cross section (N2)": 150.9}
{"molecule": "O=c1cc(-c2ccc(O)cc2)oc2cc(O)cc(O)c12", "units-of-measure": "Å²", "collision cross section (N2)": 156}
{"molecule": "CN1[C@H]2CC(=O)C[C@@H]1C(O)C2 (some centres undefined) [6-HYDROXYTROPINONE]", "units-of-measure": "Å²", "collision cross section (N2)": 131.6}
{"molecule": "CC(C)=CCOc1cc2oc(=O)ccc2cc1O", "units-of-measure": "Å²", "collision cross section (N2)": 153.5}
{"molecule": "O=C1c2cccc(O)c2C(=O)c2c(O)cccc21", "units-of-measure": "Å²", "collision cross section (N2)": 148.3}
